Target: Amaranthus palmeri cytosolic GS1.1 G162N
Test: GS enzyme inhibition assay, GS1.1 G162N
Settings: read-out: Glufosinate‐ammonium IC50
experimental-endpoint: IC50 (µM)
Give the value, in units of µM, as a plain number.

Q. What measured IC50 goes with CP(=O)(O)CCC(N)C(=O)O (stereo not shown) [Glufosinate‐ammonium] ?
A. 489

====

Target: Amaranthus palmeri cytosolic GS1.1 E131G
Assay: GS enzyme inhibition assay, GS1.1 E131G
Settings: read-out: Glufosinate‐ammonium IC50
pIC50: −log10 of the molar value.
experimental-endpoint: pIC50

Q. What value of pIC50 has been reported for the following compound? CP(=O)(O)CCC(N)C(=O)O (stereo not shown) [Glufosinate‐ammonium]
A. < 2.00
